system under test: Histone acetyltransferase p300 (Homo sapiens, UniProt Q09472)
test protocol: Binding affinity to recombinant human p300 HAT domain expressed in Escherichia coli BL21-CodonPlus(DE3)-RIL cells assessed as dissociation constant using CMLVELHTQSQDRF as substrate by surface plasmon resonance analysis
parameter: pKd
Numbers only, as −log10 of the molar value.

Exercise: Query pKd for CNC(=O)Nc1ccc2c(c1)[C@@]1(CC2)OC(=O)N(CC(=O)N(Cc2ccc(F)cc2)[C@@H](C)C(F)(F)F)C1=O
Solution: 4.70

----------
system under test: Insulin-like growth factor 1 receptor (Homo sapiens)
parameter: IC50

Exercise: Param request: IC50 | system Insulin-like growth factor 1 receptor (Homo sapiens) | item CNC(=O)Nc1ccc2c(c1)CC[C@@]21OC(=O)N(CC(=O)N(Cc2ccc(F)cc2)[C@@H](C)C(F)(F)F)C1=O [A-485]
Solution: > 10 µM

----------
system under test: Serine/threonine-protein kinase Sgk1 (Homo sapiens)
Sequence (O00141 whole entry): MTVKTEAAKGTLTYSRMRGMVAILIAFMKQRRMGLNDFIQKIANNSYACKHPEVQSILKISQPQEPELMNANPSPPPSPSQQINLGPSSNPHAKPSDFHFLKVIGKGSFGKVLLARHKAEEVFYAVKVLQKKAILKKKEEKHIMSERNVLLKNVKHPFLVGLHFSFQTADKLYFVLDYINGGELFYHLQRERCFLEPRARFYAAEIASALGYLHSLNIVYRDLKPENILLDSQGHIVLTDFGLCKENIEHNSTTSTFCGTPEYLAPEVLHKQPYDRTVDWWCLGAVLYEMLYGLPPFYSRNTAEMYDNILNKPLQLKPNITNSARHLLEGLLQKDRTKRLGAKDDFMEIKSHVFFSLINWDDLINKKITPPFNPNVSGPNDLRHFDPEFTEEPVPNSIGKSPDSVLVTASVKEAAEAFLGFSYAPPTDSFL
pIC50: −log10 of the molar value.
parameter: pIC50

Exercise: Query pIC50 for CNC(=O)Nc1ccc2c(c1)CC[C@@]21OC(=O)N(CC(=O)N(Cc2ccc(F)cc2)[C@@H](C)C(F)(F)F)C1=O [A-485]
Solution: < 5.00

----------
system under test: Vascular endothelial growth factor receptor 1 (Homo sapiens)
Sequence (P17948 whole entry): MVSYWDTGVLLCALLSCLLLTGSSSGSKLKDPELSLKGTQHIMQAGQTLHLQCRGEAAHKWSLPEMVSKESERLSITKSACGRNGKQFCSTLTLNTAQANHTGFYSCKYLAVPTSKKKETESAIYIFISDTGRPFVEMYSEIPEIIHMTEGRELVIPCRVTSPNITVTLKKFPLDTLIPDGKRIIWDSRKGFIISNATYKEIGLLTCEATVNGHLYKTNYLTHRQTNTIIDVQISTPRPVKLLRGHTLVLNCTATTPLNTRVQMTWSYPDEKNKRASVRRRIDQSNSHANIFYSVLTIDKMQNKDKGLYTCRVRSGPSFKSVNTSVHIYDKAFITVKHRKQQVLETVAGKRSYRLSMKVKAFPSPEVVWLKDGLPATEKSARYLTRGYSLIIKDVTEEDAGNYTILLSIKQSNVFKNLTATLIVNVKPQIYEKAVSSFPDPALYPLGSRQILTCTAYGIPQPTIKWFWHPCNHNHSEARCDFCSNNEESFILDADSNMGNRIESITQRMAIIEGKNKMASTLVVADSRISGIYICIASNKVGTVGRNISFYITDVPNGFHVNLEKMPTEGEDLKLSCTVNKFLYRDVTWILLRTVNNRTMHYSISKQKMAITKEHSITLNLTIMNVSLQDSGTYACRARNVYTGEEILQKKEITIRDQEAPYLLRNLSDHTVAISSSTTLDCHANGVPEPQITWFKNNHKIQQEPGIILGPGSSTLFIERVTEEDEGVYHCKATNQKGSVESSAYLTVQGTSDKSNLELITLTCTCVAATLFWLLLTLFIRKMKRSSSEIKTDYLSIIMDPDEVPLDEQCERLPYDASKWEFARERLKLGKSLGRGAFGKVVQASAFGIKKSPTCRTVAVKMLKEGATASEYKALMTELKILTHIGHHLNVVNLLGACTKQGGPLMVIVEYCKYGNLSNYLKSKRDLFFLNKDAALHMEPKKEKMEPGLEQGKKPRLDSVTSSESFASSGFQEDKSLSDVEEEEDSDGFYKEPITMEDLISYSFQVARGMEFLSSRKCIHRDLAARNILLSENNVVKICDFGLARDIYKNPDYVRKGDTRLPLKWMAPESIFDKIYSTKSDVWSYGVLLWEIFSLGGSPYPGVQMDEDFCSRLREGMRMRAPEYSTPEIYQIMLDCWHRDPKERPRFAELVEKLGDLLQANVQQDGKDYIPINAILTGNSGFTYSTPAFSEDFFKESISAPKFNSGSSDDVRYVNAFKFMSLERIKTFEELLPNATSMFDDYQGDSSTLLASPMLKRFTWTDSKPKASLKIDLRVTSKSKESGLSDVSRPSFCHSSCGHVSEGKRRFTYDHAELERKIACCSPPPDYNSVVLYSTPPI
parameter: IC50

Exercise: Param request: IC50 | system Vascular endothelial growth factor receptor 1 (Homo sapiens) | item CNC(=O)Nc1ccc2c(c1)CC[C@@]21OC(=O)N(CC(=O)N(Cc2ccc(F)cc2)[C@@H](C)C(F)(F)F)C1=O
Solution: > 10 µM

----------
Hi there, I'd appreciate the recorded inhibition at 10 µM for every entry that follows.
system under test: Ca2+ channel (L, dihydropyridine site) (Homo sapiens, UniProt O60840+Q01668+Q13698+Q13936)
test protocol: Inhibition of Ca2+ channel (L, dihydropyridine site) (unknown origin) at 10 uM by radioligand binding assay relative to control
Assay type: protein assay
Give bare numbers, in %.

CNC(=O)Nc1ccc2c(c1)[C@@]1(CC2)OC(=O)N(CC(=O)N(Cc2ccc(F)cc2)[C@@H](C)C(F)(F)F)C1=O : -3

Exercise: Query inhibition at 10 µM for CNC(=O)Nc1ccc2c(c1)CC[C@@]21OC(=O)N(CC(=O)N(Cc2ccc(F)cc2)[C@@H](C)C(F)(F)F)C1=O
Solution: -9

----------
Tested on: COR-L47
test protocol: Antiproliferative activity against human COR-L47 cells assessed as inhibition of cell viability incubated for 3 to 5 days by Celltiter-Glo luminescent assay
Type: functional, cell-based
parameter: EC50

Exercise: Param request: EC50 | system COR-L47 | item CNC(=O)Nc1ccc2c(c1)CC[C@@]21OC(=O)N(CC(=O)N(Cc2ccc(F)cc2)[C@@H](C)C(F)(F)F)C1=O
Solution: > 10 µM

----------
test protocol: AUC in CB17 SCID mouse xenografted with LuCaP-77 CR cell at 200 mg/kg, ip administered for 7 days
Format: ADME, organism-based
experimental parameters: in vivo, time 7 day
parameter: AUC at 168 h (µg·h/mL)
Numbers only, in µg·h/mL.

Exercise: Query AUC at 168 h for CNC(=O)Nc1ccc2c(c1)CC[C@@]21OC(=O)N(CC(=O)N(Cc2ccc(F)cc2)[C@@H](C)C(F)(F)F)C1=O [A-485]
Solution: 2950

----------
Tested on: HT-144
test protocol: Antiproliferative activity against human HT-144 cells assessed as inhibition of cell viability incubated for 3 to 5 days by Celltiter-Glo luminescent assay
Type: functional, cell-based
parameter: EC50 (µM)
Answers are plain numbers, in µM.

Exercise: Query EC50 for CNC(=O)Nc1ccc2c(c1)CC[C@@]21OC(=O)N(CC(=O)N(Cc2ccc(F)cc2)[C@@H](C)C(F)(F)F)C1=O
Solution: 3.08

----------
system under test: Tyrosine-protein kinase Lck (Homo sapiens, UniProt P06239)
Sequence (P06239 whole entry): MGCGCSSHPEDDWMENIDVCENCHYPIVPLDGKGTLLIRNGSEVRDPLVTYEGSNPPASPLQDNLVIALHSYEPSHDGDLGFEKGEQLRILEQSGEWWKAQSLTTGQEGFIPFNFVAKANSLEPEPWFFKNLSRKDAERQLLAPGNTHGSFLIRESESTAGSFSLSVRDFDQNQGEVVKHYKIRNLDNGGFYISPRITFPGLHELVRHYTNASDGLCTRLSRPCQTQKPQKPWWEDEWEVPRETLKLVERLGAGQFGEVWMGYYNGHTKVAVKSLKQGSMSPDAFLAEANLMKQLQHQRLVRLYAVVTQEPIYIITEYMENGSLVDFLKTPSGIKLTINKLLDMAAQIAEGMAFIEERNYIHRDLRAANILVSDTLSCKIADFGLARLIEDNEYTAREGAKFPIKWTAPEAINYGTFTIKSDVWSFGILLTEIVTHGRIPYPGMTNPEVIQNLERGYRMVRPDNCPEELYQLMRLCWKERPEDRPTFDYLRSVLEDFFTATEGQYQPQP
pIC50: −log10 of the molar value.
parameter: pIC50

Exercise: Query pIC50 for CNC(=O)Nc1ccc2c(c1)CC[C@@]21OC(=O)N(CC(=O)N(Cc2ccc(F)cc2)[C@@H](C)C(F)(F)F)C1=O [A-485]
Solution: < 5.00

----------
test protocol: Ratio of drug concentration in brain to plasma in CB17 SCID mouse xenografted with LuCaP-77 CR cell at 50 mg/kg, po measured after 24 hrs
parameter: Kp at 24 h
Give bare numbers.

Exercise: Query Kp at 24 h for CNC(=O)Nc1ccc2c(c1)CC[C@@]21OC(=O)N(CC(=O)N(Cc2ccc(F)cc2)[C@@H](C)C(F)(F)F)C1=O [A-485]
Solution: 0.097

----------
system under test: Wee1-like protein kinase (Homo sapiens)
Sequence (P30291 whole entry): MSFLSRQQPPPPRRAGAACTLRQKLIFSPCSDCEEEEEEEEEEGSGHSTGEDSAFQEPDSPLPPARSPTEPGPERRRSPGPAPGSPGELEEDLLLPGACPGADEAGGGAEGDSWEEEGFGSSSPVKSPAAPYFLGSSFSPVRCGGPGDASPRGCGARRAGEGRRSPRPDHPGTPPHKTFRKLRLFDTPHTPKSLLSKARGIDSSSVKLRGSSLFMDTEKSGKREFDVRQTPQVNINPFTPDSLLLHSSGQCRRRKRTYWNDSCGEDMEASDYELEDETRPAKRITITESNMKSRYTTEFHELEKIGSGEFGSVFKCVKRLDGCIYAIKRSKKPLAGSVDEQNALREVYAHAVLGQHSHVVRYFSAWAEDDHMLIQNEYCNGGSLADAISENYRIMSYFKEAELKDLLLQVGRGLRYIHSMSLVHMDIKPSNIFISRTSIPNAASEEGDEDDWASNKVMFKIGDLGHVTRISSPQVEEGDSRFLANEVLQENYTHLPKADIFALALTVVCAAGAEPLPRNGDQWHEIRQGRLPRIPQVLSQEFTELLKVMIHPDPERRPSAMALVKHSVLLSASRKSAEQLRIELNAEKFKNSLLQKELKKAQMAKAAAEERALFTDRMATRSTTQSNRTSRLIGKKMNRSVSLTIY
pIC50: −log10 of the molar value.
parameter: pIC50

Exercise: Query pIC50 for CNC(=O)Nc1ccc2c(c1)CC[C@@]21OC(=O)N(CC(=O)N(Cc2ccc(F)cc2)[C@@H](C)C(F)(F)F)C1=O
Solution: < 5.00

----------
system under test: Insulin receptor (Homo sapiens)
pIC50: −log10 of the molar value.
parameter: pIC50

Exercise: Query pIC50 for CNC(=O)Nc1ccc2c(c1)CC[C@@]21OC(=O)N(CC(=O)N(Cc2ccc(F)cc2)[C@@H](C)C(F)(F)F)C1=O [A-485]
Solution: < 5.00

----------
system under test: Vascular endothelial growth factor receptor 2 (Homo sapiens, UniProt P35968)
parameter: IC50

Exercise: Query IC50 for CNC(=O)Nc1ccc2c(c1)CC[C@@]21OC(=O)N(CC(=O)N(Cc2ccc(F)cc2)[C@@H](C)C(F)(F)F)C1=O [A-485]
Solution: > 10 µM

----------
system under test: Tyrosine-protein kinase ABL1 (Homo sapiens)
Sequence (P00519 whole entry): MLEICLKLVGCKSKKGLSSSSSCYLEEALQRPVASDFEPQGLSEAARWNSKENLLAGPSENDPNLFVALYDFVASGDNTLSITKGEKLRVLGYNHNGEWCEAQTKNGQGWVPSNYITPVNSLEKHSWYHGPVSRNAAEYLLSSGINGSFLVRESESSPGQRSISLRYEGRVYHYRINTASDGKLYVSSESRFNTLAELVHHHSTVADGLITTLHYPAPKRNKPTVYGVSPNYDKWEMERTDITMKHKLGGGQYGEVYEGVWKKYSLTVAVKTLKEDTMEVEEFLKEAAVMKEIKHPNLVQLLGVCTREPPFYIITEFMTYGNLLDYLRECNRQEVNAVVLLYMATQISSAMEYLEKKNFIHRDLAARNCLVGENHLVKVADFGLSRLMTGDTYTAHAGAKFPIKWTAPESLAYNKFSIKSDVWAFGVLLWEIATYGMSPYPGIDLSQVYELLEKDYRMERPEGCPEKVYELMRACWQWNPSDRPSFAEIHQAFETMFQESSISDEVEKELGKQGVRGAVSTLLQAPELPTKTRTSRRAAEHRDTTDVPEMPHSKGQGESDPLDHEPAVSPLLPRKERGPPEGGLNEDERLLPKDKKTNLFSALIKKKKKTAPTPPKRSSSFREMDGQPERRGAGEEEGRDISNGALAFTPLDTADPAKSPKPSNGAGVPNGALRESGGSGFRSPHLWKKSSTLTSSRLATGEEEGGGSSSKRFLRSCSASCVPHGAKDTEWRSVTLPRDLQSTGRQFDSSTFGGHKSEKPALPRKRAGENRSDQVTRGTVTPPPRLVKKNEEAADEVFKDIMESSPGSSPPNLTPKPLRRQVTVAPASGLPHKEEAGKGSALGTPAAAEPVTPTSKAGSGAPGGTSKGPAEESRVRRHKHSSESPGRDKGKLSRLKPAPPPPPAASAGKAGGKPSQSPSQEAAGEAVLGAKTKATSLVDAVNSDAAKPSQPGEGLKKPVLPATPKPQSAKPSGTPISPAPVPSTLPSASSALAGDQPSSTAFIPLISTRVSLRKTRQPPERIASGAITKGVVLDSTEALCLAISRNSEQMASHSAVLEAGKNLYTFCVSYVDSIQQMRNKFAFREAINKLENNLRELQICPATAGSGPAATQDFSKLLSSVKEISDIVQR
parameter: IC50

Exercise: Query IC50 for CNC(=O)Nc1ccc2c(c1)CC[C@@]21OC(=O)N(CC(=O)N(Cc2ccc(F)cc2)[C@@H](C)C(F)(F)F)C1=O
Solution: > 10 µM

----------
system under test: Macrophage colony-stimulating factor 1 receptor (Homo sapiens)
test protocol: Inhibition of CSF1R (unknown origin)
pIC50: −log10 of the molar value.
parameter: pIC50

Exercise: Query pIC50 for CNC(=O)Nc1ccc2c(c1)CC[C@@]21OC(=O)N(CC(=O)N(Cc2ccc(F)cc2)[C@@H](C)C(F)(F)F)C1=O [A-485]
Solution: < 5.00

----------
System: L-363
test protocol: Antiproliferative activity against human L-363 cells assessed as inhibition of cell viability incubated for 3 to 5 days by Celltiter-Glo luminescent assay
Format: functional, cell-based
parameter: pEC50
Numbers only, as −log10 of the molar value.

Exercise: Query pEC50 for CNC(=O)Nc1ccc2c(c1)CC[C@@]21OC(=O)N(CC(=O)N(Cc2ccc(F)cc2)[C@@H](C)C(F)(F)F)C1=O
Solution: 6.29

----------
System: OCI-AML2
test protocol: Antiproliferative activity against human OCI-AML2 cells assessed as inhibition of cell viability incubated for 3 to 5 days by Celltiter-Glo luminescent assay
Format: functional, cell-based
parameter: EC50 (nM)
Numbers only, in nM.

Exercise: Param request: EC50 | system OCI-AML2 | item CNC(=O)Nc1ccc2c(c1)CC[C@@]21OC(=O)N(CC(=O)N(Cc2ccc(F)cc2)[C@@H](C)C(F)(F)F)C1=O
Solution: 2030

----------
system under test: Hepatocyte growth factor receptor (Homo sapiens)
Sequence (P08581 whole entry): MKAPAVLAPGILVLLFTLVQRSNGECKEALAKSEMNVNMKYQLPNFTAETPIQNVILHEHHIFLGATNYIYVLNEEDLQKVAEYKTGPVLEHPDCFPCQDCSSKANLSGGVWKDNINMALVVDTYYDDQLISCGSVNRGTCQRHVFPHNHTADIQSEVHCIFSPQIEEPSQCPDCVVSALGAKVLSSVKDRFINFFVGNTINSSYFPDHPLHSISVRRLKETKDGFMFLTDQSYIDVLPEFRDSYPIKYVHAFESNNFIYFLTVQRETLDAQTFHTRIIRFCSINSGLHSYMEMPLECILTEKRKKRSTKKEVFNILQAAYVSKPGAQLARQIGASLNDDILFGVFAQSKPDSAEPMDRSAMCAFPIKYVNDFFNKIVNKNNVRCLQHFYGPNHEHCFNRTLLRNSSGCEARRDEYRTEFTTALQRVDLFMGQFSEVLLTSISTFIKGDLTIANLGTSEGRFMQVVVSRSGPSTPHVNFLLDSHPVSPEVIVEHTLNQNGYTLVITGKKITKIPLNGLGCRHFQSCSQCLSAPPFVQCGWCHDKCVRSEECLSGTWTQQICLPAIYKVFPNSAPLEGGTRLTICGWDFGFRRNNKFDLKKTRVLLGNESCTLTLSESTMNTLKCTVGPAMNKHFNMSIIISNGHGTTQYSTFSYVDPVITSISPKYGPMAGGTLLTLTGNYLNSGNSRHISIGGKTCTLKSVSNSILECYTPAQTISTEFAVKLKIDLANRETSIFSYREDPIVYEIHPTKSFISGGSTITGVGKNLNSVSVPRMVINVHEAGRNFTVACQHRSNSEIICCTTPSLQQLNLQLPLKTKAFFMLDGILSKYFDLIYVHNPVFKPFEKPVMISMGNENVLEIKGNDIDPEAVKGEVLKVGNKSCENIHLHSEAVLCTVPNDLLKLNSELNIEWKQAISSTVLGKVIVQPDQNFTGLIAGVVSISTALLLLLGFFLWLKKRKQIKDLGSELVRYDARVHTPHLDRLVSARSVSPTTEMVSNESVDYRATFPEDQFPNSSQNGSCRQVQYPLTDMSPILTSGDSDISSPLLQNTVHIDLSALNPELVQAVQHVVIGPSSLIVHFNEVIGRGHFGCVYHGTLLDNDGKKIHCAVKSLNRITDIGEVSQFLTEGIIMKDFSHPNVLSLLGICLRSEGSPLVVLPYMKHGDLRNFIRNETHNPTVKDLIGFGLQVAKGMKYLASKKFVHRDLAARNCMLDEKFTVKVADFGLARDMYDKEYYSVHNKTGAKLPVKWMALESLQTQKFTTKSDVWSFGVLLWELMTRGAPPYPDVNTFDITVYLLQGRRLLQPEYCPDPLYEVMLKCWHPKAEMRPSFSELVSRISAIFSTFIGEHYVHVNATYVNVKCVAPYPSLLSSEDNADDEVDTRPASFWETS
pIC50: −log10 of the molar value.
parameter: pIC50

Exercise: Query pIC50 for CNC(=O)Nc1ccc2c(c1)CC[C@@]21OC(=O)N(CC(=O)N(Cc2ccc(F)cc2)[C@@H](C)C(F)(F)F)C1=O
Solution: < 5.00

----------
system under test: Serine/threonine-protein kinase 4 (Homo sapiens, UniProt Q13043)
Sequence (Q13043 whole entry): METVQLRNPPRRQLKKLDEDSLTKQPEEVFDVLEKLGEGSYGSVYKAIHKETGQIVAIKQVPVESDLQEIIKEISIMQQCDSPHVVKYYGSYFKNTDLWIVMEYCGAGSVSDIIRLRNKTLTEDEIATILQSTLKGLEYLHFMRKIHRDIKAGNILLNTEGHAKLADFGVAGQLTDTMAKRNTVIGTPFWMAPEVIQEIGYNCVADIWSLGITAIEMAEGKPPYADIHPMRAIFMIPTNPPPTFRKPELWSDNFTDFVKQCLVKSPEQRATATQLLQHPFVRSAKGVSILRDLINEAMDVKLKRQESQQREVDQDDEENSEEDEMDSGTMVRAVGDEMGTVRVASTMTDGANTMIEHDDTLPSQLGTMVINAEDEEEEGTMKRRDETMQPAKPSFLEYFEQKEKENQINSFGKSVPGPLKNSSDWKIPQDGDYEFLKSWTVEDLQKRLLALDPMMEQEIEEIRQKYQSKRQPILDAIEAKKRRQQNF
parameter: IC50

Exercise: Query IC50 for CNC(=O)Nc1ccc2c(c1)CC[C@@]21OC(=O)N(CC(=O)N(Cc2ccc(F)cc2)[C@@H](C)C(F)(F)F)C1=O
Solution: > 10 µM
